# Test system: Phytophthora infestans
# protocol_details: whole plant or invertebrate
# Assay type: in vivo
# condition_set: Phytophthora infestans, in Solanum lycopersicum, read-out: TLB control value (C.V.)
Assignment: determine reported pest or weed control at 2 ppm for the given compounds.
Give bare numbers, in %.

Recorded pest or weed control at 2 ppm, per entry:
{"compound": "CO/N=C(/C(=O)OC)c1ccccc1COc1c(OC)ccc(C=C(Br)Br)c1Br", "target": "Phytophthora infestans", "pest or weed control at 2 ppm, %": 70}
{"compound": "CNC(=O)/C(=N/OC)c1ccccc1COc1ccc(C=C(Br)Br)cc1Br", "target": "Phytophthora infestans", "pest or weed control at 2 ppm, %": 70}
{"compound": "CNC(=O)/C(=N/OC)c1ccccc1COc1cccc(C=C(Cl)Cl)c1", "target": "Phytophthora infestans", "pest or weed control at 2 ppm, %": 98}
{"compound": "CO/N=C(/C(=O)OC)c1ccccc1COc1ccc(C=C(Cl)Cl)cc1", "target": "Phytophthora infestans", "pest or weed control at 2 ppm, %": 0}
{"compound": "CCOc1cc(C=C(Br)Br)ccc1OCc1ccccc1/C(=N\\OC)C(=O)NC", "target": "Phytophthora infestans", "pest or weed control at 2 ppm, %": 70}
{"compound": "CO/N=C(/C(=O)OC)c1ccccc1COc1ccc(C=C(F)F)cc1", "target": "Phytophthora infestans", "pest or weed control at 2 ppm, %": 100}
{"compound": "CNC(=O)/C(=N/OC)c1ccccc1COc1cccc(C=C(Cl)Br)c1", "target": "Phytophthora infestans", "pest or weed control at 2 ppm, %": 93}
{"compound": "CO/N=C(/C(=O)OC)c1ccccc1COc1cc(C=C(Br)Br)ccc1OC", "target": "Phytophthora infestans", "pest or weed control at 2 ppm, %": 70}

// input: 2 compounds below; output: pest or weed control at 2 ppm for each
1. CNC(=O)/C(=N/OC)c1ccccc1COc1ccc(C=C(Cl)Br)cc1
2. CO/N=C(/C(=O)OC)c1ccccc1COc1ccccc1C [Kresoxim-methyl, reference compound]

1. 30
2. 80
